Test system: COLO 205 colon
ASSAY_SUMMARY: NCI tumour cell line growth inhibition, 48 h; in the data active means GI50 below about 0.43 µM; inactive means the rest
Bench note: report the call from active, inactive

Solved cases (6 shown):
>  <COMPOUND>
CCCCOc1ccc(/C=N/Nc2cc(C)nc3ccc(Cl)cc23)cc1

>  <ASSIGNED_CLASS>
inactive

$$$$
>  <COMPOUND>
CO[C@H](C(=O)O)[C@@H]1Cc2cc3cc(OC4CC(OC5CC(O)C(O)C(C)O5)C(O)C(C)O4)c(C)c(O)c3c(O)c2C(=O)[C@H]1OC1CC(OC2CC(OC3CC(C)(O)C(O)C(C)O3)C(O)C(C)O2)C(O)C(C)O1 (stereo not given in full)

>  <ASSIGNED_CLASS>
active

$$$$
>  <COMPOUND>
C#CCN(Cc1nc2cc(C(F)(F)F)ccc2nc1-c1ccccc1)c1ccc(F)c(F)c1

>  <ASSIGNED_CLASS>
inactive

$$$$
>  <COMPOUND>
Cc1ccc2c(c1)C(=O)c1c-2n(CCCN=[N+]=[N-])c(=O)c2cc([N+](=O)[O-])ccc12

>  <ASSIGNED_CLASS>
inactive

$$$$
>  <COMPOUND>
O=C(CC(=O)c1ccccc1)c1ccccc1

>  <ASSIGNED_CLASS>
inactive

$$$$
>  <COMPOUND>
COc1ccc(/C=N/N=C(\[O-])c2ccncc2)cc1F.COc1ccc(/C=N\N=C(/[O-])c2ccncc2)cc1F.[Cu+2]

>  <ASSIGNED_CLASS>
inactive

$$$$

query: Hi, do you know how CC1(C)[C@@H](OC(N)=O)C=C[C@]2(C=O)[C@H]3CC[C@]4(C)[C@@H](c5ccc(=O)oc5)[C@@H](Cl)C[C@]4(O)C3=CC[C@@H]12 came out in this test?
result: active

query: One more compound: Cn1ccnc1C[N-]Cc1nccn1C.O=[N+]([O-])[O-].O=[N+]([O-])[O-].[Cu+2]
result: inactive

query: Please answer likewise for O=S(=O)(O)ONC1=NCCN1
result: inactive

query: CCOc1cc(C(C)(C)C)ccc1C1=N[C@@](C)(c2ccc(Cl)cc2)[C@@](C)(c2ccc(Cl)cc2)N1C(=O)N1CCN(CCS(C)(=O)=O)CC1 , same question.
result: inactive

query: Queued: OC(COc1cccc2ccccc12)CN1CCN(c2ccccc2Cl)CC1 (stereo not given)
result: inactive

query: One more compound: CCOC(=O)/C(C#N)=C/Nc1ccc(-c2nc3ccccc3[nH]2)cc1
result: inactive

query: What do we get for C1CC[N-]CC1.CC(=N\O)/C(C)=N/O.CC(=N\O)/C(C)=N/O.[CH2-]CCN1CCOCC1.[Co+2] ?
result: inactive

query: Follow-up entry: COc1c(N2CCN(Cn3c(O)c(N=NC(=O)c4ccncc4)c4cc(F)ccc43)C(C)C2)c(F)cc2c(=O)c(C(=O)O)cn(C3CC3)c12 (stereo not given)
result: inactive

query: Would you mind doing Oc1c(CN2CCOCC2)cc(COCc2ccccc2)c2cccnc12 as well?
result: inactive

query: Also check COc1ccc2c(c1)CC[C@@H]1[C@@H]2CC[C@]2(C)C=C(/C=C/C(=O)c3ccccc3)C[C@@H]12
result: inactive

query: Same for Cn1ncc(-c2ccc3c(=O)[nH]nc(CN)c3c2)c1-c1c(F)cc2ccccc2c1C#N
result: inactive

query: Follow-up entry: COc1cc([C@@H]2c3cc4c(cc3C(OC3O[C@@H]5COC(C)O[C@H]5[C@H](O)[C@H]3O)C3COC(=O)[C@@H]32)OCO4)cc(OC)c1O (stereo not given in full)
result: inactive

query: Try this compound too: O=c1c2c3c(sc2n2c(-c4ccc(Br)cc4)nnc2n1Cc1ccccc1)CCCC3
result: inactive

query: Now try COc1cc2c(cc1OC)-c1ncc3cc4c(cc3c1C2)OCO4 .
result: inactive

###

System: HS 578T breast
ASSAY_SUMMARY: NCI tumour cell line growth inhibition, 48 h
// reported TGI per item
# number only, unit µM dropped from output

>  <TEST_SMILES>
CCOC(=O)/C(C#N)=C/Nc1ccc(-c2nc3ccccc3[nH]2)cc1

>  <TARGET_OF_ASSAY>
HS 578T breast

>  <PROPERTY_LABEL>
TGI

>  <RESULT>
79.5

$$$$
>  <TEST_SMILES>
COc1ccc2c(c1)CC[C@@H]1[C@@H]2CC[C@]2(C)C=C(/C=C/C(=O)c3ccccc3)C[C@@H]12

>  <TARGET_OF_ASSAY>
HS 578T breast

>  <PROPERTY_LABEL>
TGI

>  <RESULT>
49

$$$$
>  <TEST_SMILES>
CCN(CC)CCC(=O)c1ccc(Oc2ccc(F)cc2)cc1

>  <TARGET_OF_ASSAY>
HS 578T breast

>  <PROPERTY_LABEL>
TGI

>  <RESULT>
60.2

$$$$

query: Could you share which TGI value was measured for CN(C)c1ccc(/C=c2/c3cc([N+](=O)[O-])ccc3n3c2cc(-c2ccccc2)[n+]3C)cc1 ?
result: 7.97

###

Each entry below carries its recorded TGI.
System: NCI-H522 lung
ASSAY_SUMMARY: NCI tumour cell line growth inhibition, 48 h

query: Form: Entry = N#Cc1cccc(OCc2ccccc2COc2cccc(C#N)c2)c1 | System = NCI-H522 lung | TGI = ____
result: > 100 µM

query: Also O=S(=O)(O)ONC1=NCCN1 , if possible.
result: > 100 µM

query: Moving on to the next compound: Cc1nnc(-c2ccc(-c3nc4ccccc4o3)cc2)o1
result: > 100 µM

query: Repeat for the following compound: CCCC1(N)CC(OC)OC(C)C1O (stereo unspecified)
result: > 100 µM

query: Param item: OCC(O)C(OC1OC(CO)C(O)C(O)C1O)c1nn(-c2ccccc2)c2nc3cc(Cl)ccc3nc12 (stereo unspecified)
result: > 100 µM

query: Follow-up item: N#C/C(=C\c1ccccc1Br)C(=O)c1ccccc1
result: > 100 µM

query: Proceed to COc1ccc2nc3cccc(C(=O)NCCN(C)C)c3nc2c1
result: > 100 µM

query: Moving on to COc1cc2c(cc1OCCCCCOc1cc3c(cc1OC)C(=O)N1CCC[C@H]1CN3)N=C[C@@H]1CCCN1C2=O
result: 3.65 µM

query: Same thing, different compound: O=C(CCl)Nc1cc(O)c2c(c1)C(=O)c1cccc(O)c1C2=O
result: 0.384 µM

query: Now consider COC(=O)[C@H](CCSC)NC(=O)c1ccc(CNC(=O)/C(C)=C/c2ccccc2)cc1 .
result: 32.5 µM

query: Next entry: CC[C@H](NC(=O)[C@H](CS(=O)(=O)CC1CC1)N[C@@H](c1ccc(F)cc1)C(F)(F)F)C(=O)C(=O)NC1CC1
result: > 100 µM

###

Tested on: NCI-H23 lung
ASSAY_SUMMARY: NCI tumour cell line growth inhibition, 48 h
PROPERTY_LABEL: GI50

// below: answered compounds
>  <COMPOUND>
C=CCCC(=O)N1C=CC(=O)[C@H](O)[C@@H]1/C=C/c1ccccc1

>  <GI50>
23.6 µM

$$$$
>  <COMPOUND>
O=S(=O)(O)ONC1=NCCN1

>  <GI50>
94.2 µM

$$$$
>  <COMPOUND>
Cc1sc2ncn(Cc3ccc(Cl)c(Cl)c3)c(=O)c2c1C

>  <GI50>
32.5 µM

$$$$
>  <COMPOUND>
C#Cc1cc2c(N)c(C(=O)c3cc(OC)c(OC)c(OC)c3)[nH]c2cc1OC

>  <GI50>
1.94 µM

$$$$
>  <COMPOUND>
COc1cc(C2c3cc4c(cc3[C@@H](Nc3ccc(N)cc3)C3COC(=O)[C@H]23)OCO4)cc(OC)c1O (some centres not stated)

>  <GI50>
0.415 µM

$$$$

query: Please give the measured GI50 for this compound: Oc1c(CN2CCOCC2)cc(COCc2ccccc2)c2cccnc12
result: 3.25 µM

query: Try the compound CCOC(=O)Cc1csc(NC(=O)COC(=O)c2ccc(OC)cc2)n1
result: 29.8 µM

query: Try the compound CCc1nc(-n2c(-c3ccccc3)nc3ccccc3c2=O)nc(N)c1-c1ccc(Cl)cc1
result: 2.9 µM

query: Also check Cc1nnc(-c2ccc(-c3nc4ccccc4o3)cc2)o1
result: > 100 µM

###

System: T-47D breast
ASSAY_SUMMARY: NCI tumour cell line growth inhibition, 48 h
# TGI listing for each entry below

query: Can you look up the measured TGI of COc1cc([C@@H]2c3cc4c(cc3C(OC3O[C@@H]5COC(C)O[C@H]5[C@H](O)[C@H]3O)C3COC(=O)[C@@H]32)OCO4)cc(OC)c1O (stereo not given in full) for me?
result: > 33.1 µM

query: Try CC(=O)OCC1OC(N2C(S)=C(C#N)C(c3ccco3)C(C(C)=O)=C2c2ccccc2)C(OC(C)=O)C(OC(C)=O)C1OC(C)=O (stereo not given) next.
result: > 100 µM

query: Further, for Nc1ccc(-c2nc3ccccc3s2)cc1Br ?
result: > 100 µM

query: Same thing, different molecule: C/C=C1\CC(C(=O)OCC)CCCCCCCCCCC1=O (stereo not given)
result: > 100 µM

query: Again, but for Cc1cc(O)c(C(c2ccncc2)c2c(O)cc(C)[nH]c2=O)c(=O)[nH]1
result: > 100 µM

query: Also check O=C1OC(=O)C2C1C(c1ccccc1[N+](=O)[O-])C=C(c1ccco1)N2c1ccncc1 (stereo not given)
result: 14 µM

query: Again, but for Cc1nc2c(=O)[nH]c3ccc(Cl)cc3c2o1
result: > 100 µM
